Assignment: determine reported Kd for the given binders.
molecular target: T1, human IL-6 (mature hIL-6) (human, UniProt P05231 30-212); experiment: SPR (format not stated)
T1 construct: also called the antigen
T1 sequence (P05231 30-212): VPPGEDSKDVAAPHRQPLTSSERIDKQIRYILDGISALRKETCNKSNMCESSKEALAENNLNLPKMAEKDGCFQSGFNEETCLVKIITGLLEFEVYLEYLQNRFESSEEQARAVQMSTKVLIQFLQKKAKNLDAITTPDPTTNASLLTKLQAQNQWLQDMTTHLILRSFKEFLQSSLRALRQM
Give bare numbers, in nM.

Worked set:
Polypeptide_14 (VHH, VHH_2.14 with C-terminal His tag extension E1; also called [VHH_2.14]-E1) VHH: QLQLVESGGGSVQVGDSLRLSCTFSGRSFSSYAMGWFRQAPGKEREFVADIGENADNTWYAHSVKGRFTISRDNAKNTVYLQMNSLKPEDTAVYYCAADSYGVGGGAQGYYDSWGQGTQVTVSS | 0.396
Polypeptide_11 (VHH, VHH_2.11 with C-terminal His tag extension E1; also called [VHH_2.11]-E1) VHH: EVQLVESGGGLVQAGGSLRLSCTASGRSFSSYAMGWFRQAPGKEREFVADIGVNPDNTWYADSAKGRFTISRDNAKNTMYLQMNSLKPEDTAVYYCAADSYGVGGGAERYYDSWGQGTQVTVSS | 0.0701

Okay, next one:
Prompt: May I ask what Kd has been recorded for Polypeptide_8 (VHH, VHH_2.8 with C-terminal His tag extension E1; also called [VHH_2.8]-E1) VHH: QVQLVESGGGLVQPGGSLRLSCAASGFTFSSYWMYWVRQAPGKGLEWVSGINTGGSTPDYADSVKGRFTISRDNAKNTLYLQMNSLRPEDTAVYYCAADTPRSFRLNHYSPLGQGTQVTVSS ?
Response: 0.816
